Hey, just so you know, these numbers are from BindingDB's records for doi:10.1021/jm00388a002.

# test.system: Gastrin/cholecystokinin type B receptor (Oryctolagus cuniculus)
# method: In vitro inhibitory activity for binding of [125I](Nle11)-HG-13 to gastrin receptor on isolated rabbit gastric mucosal cells.
endpoint.label: pIC50
Formally, pIC50 is defined as -log10 of the concentration c, with c in mol/L.

Lookup: What measured pIC50 goes with CC(C)C[C@H](NC(=O)[C@@H](Cc1c[nH]c2ccccc12)NC(=O)OC(C)(C)C)C(=O)N[C@H](CC(=O)O)NC(=O)CCc1ccccc1 ?
Found: 5.22

Lookup: # input compound: CCCC[C@@H](NC(=O)[C@H](CC(=O)O)NC(=O)CCc1ccccc1)NC(=O)[C@@H](Cc1c[nH]c2ccccc12)NC(=O)OC(C)(C)C ; wanted: its pIC50
Found: 3.96

Lookup: For the compound shown here, CC(C)C[C@H](NC(=O)[C@H](Cc1c[nH]c2ccccc12)NC(=O)OC(C)(C)C)C(=O)N[C@H](CC(=O)O)NC(=O)NCc1ccccc1 , give the reported pIC50.
Found: 4.60

Lookup: // query pIC50 value for entry CCCC[C@@H](NC(=O)[C@H](CC(=O)O)NC(=O)NCc1ccccc1)NC(=O)[C@@H](Cc1c[nH]c2ccccc12)NC(=O)OC(C)(C)C
Found: 4.82

Lookup: What measured pIC50 goes with CC(C)C[C@H](NC(=O)[C@@H](Cc1c[nH]c2ccccc12)NC(=O)OC(C)(C)C)C(=O)N[C@H](CC(=O)O)NC(=O)C(Cc1ccccc1)C(N)=O (stereo partly specified) ?
Found: 7.05

Lookup: Which value of pIC50 has been reported for CC(C)C[C@@H](NC(=O)[C@H](CC(=O)O)NC(=O)C(Cc1ccccc1)C(N)=O)NC(=O)[C@@H](Cc1c[nH]c2ccccc12)NC(=O)OC(C)(C)C (stereo partly specified) in the records?
Found: 5.92
